# PROCEDURE_DETAILS: Distribution coefficient, logD of compound at pH 3 by Sirius T3 apparatus based potentiometric titration analysis
# Assay type: physicochemical
# CONDITIONS: octanol/water
QUANTITY: logD

Cc1cccc(CC(=O)O)c1 :: 1.35
Cc1cccc(Cc2nnn[nH]2)c1 :: 1.07
Cc1cccc(-c2noc(O)n2)c1 :: 0.8
Cc1cccc(-c2noc(S)n2)c1 :: 1.44
Cc1cccc(C2=C(O)COC2=O)c1 :: 1.26
Cc1cccc(-c2nnn[nH]2)c1 :: 1.1
Cc1cccc(Cc2noc(O)n2)c1 :: 1.39
Cc1cccc(-c2nsc(O)n2)c1 :: 2.04

a. Cc1cccc(CC(=O)NS(C)(=O)=O)c1
b. Cc1cccc(Cc2noc(S)n2)c1
Qu. Determine, for a and b , which has the greater value of logD. The response must carry the label of the picked entry.
Ans. b
(b: 1.42, a: 0.44)
